Origin of values: ChEMBL document CHEMBL1150387

Molecular target: Vascular endothelial growth factor receptor 1 (Homo sapiens) (UniProt P17948)
Sequence (P17948 whole entry): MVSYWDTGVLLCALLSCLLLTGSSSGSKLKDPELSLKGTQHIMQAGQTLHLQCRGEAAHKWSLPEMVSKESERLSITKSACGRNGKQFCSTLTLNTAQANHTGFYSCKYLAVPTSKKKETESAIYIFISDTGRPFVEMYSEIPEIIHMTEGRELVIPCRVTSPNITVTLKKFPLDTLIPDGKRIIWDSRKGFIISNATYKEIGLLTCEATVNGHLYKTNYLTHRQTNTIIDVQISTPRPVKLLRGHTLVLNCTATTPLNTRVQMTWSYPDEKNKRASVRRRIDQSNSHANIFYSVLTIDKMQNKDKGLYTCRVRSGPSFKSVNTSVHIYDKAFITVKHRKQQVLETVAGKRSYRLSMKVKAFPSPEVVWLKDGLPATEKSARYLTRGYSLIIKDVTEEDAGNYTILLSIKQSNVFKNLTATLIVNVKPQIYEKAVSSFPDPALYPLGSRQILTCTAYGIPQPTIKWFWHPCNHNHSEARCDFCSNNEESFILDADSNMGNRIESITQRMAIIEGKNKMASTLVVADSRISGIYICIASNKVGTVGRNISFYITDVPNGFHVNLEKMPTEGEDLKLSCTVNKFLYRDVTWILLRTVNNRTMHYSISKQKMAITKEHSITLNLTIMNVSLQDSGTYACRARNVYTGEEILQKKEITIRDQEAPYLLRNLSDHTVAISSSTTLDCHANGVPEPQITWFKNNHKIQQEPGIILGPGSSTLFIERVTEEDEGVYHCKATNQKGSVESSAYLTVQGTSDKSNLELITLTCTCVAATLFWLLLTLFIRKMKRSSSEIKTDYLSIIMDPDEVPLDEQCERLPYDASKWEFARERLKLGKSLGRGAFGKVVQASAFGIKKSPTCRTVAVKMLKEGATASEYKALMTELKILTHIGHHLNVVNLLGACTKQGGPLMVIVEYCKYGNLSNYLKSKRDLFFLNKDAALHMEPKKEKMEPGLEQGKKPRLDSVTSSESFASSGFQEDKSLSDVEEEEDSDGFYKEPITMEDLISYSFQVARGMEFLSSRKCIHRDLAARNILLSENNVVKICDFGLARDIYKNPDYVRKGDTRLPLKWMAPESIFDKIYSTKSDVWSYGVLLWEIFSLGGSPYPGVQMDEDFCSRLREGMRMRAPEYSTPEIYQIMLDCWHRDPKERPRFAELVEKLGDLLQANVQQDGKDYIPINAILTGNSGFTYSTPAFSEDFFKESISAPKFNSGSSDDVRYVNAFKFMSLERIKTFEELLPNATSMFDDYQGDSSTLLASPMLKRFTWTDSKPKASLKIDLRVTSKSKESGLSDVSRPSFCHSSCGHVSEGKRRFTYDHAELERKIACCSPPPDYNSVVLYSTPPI
Experiment: Inhibition of FLT1 at 10 uM by HTRF assay relative to control
Measured inhibition of individual entries
outcome measure: inhibition (%)

Cc1cc(C(=O)N2CCN(c3ncnc4c3CN(Cc3ccccc3)CC4)CC2)c(C)n1C
0
O=C(NC1Cc2ccccc2C1)c1cccc(Nc2ccnc(N3CCN(c4ccccc4)CC3)n2)c1
0
Nc1nc(Nc2ccc3ncsc3c2)cc(N2CCC[C@H]2C(=O)NCCc2cccc(I)c2)n1
1
COc1ccc(-c2noc(CN3CCN(c4cc(Nc5cccc(O)c5)ncn4)CC3)n2)cc1
0
Cc1cccc(N(C)c2cc(Nc3cccc(C(=O)NCCCn4ccnc4)c3)ncn2)c1
0
CN(CCc1ccccn1)C(=O)[C@@H]1CCCN1c1nccc(Nc2ccccc2)n1
0
O=C(NCCc1ccc(O)cc1)c1cccc(Nc2nccc(Nc3ccc4ncsc4c3)n2)c1
42
COC[C@@H]1CCCN1C(=O)[C@@H]1CCCN1c1cc(Nc2cccc(OC)c2)nc(N)n1
3
Clc1ccc2sc(CN3CCN(c4ncnc5c4CN(Cc4ccccc4)CC5)CC3)cc2c1
0
COc1cccc(Nc2cc(N3CCC[C@H]3C(=O)NCCN3CCCCC3)nc(N)n2)c1
13
Cc1cccc(N(C)c2cc(Nc3cccc(C(=O)NCc4ccc(N(C)C)cc4)c3)ncn2)c1
21
Cc1cccc(CN2CCN(c3cc(N(C)c4cccc(C)c4)ncn3)CC2)c1
0
Nc1nc(Nc2ccccc2)cc(N2CCC(C(=O)NCCc3ccccn3)CC2)n1
0
O=C(NCc1cccnc1)c1cccc(-c2ccc(Nc3ccc4ncsc4c3)nn2)c1
43
O=C(CN1CCN(c2ncnc3c2CN(Cc2ccccc2)CC3)CC1)Nc1cc(F)ccc1F
0
CN(C)CC(C)(C)CNC(=O)c1cccc(Nc2nccc(Nc3ccc4ncsc4c3)n2)c1
39
O=C(C1CCN(c2nccc(Nc3ccccc3)n2)CC1)N1CC[C@@H](O)C1
6
Nc1nc(Nc2ccc3ncsc3c2)cc(N2CCC[C@H]2C(=O)N[C@@H](CO)c2ccccc2)n1
5
Cc1cccc(Nc2cc(Nc3cccc(C(=O)N(CC(C)O)CC(C)O)c3)ncn2)c1 (centres undefined)
83
CN(CCCn1ccnc1)C(=O)[C@@H]1CCCN1c1nccc(Nc2ccccc2)n1
4
Cc1cccc(Nc2nccc(Nc3cccc(C(=O)NCc4ccc(N(C)C)cc4)c3)n2)c1
0
CC(=O)CCCCC(=O)N1CCN(c2nccc(Oc3cccc(C)c3)n2)CC1
1
CN(C)c1ccc(C(=O)N2CCN(c3ncnc4c3CN(Cc3ccccc3)CC4)CC2)c2ccccc12
0
Cc1cccc(Oc2ccnc(N3CCC[C@H]3C(=O)NCCCn3ccnc3)n2)c1
0
Cc1cccc(Oc2ccnc(N3CCN(C(=O)c4c(C)noc4C)CC3)n2)c1
7
COc1cccc(Nc2cc(N3CCC[C@H]3C(=O)NCCc3ccc(O)cc3)nc(N)n2)c1
2
Cc1cccc(N(C)c2cc(N3CCN(CC(=O)Nc4nc(-c5ccccc5)cs4)CC3)ncn2)c1
14
CN(C)CC(C)(C)CNC(=O)[C@@H]1CCCN1c1nccc(Nc2ccccc2)n1
12
COC[C@@H]1CCCN1C(=O)C1CCCN1c1cc(Nc2cccc(Br)c2)ncn1 (some centres undefined)
0
CN(CCc1ccccn1)C(=O)c1cccc(Nc2nccc(Nc3ccc4ncsc4c3)n2)c1
72
CC(=O)N1CCN(C(=O)c2cccc(Nc3cc(N(C)c4cccc(C)c4)ncn3)c2)CC1
5
O=C(NC[C@@H]1CCCO1)c1cccc(Nc2nccc(Nc3ccc4ncsc4c3)n2)c1
87
Nc1nc(N2CCOCC2)cc(N2CCC(C(=O)NCc3cccs3)CC2)n1
0
COC(=O)C(CO)NC(=O)[C@@H]1CCCN1c1nccc(Oc2cccc(C)c2)n1 (some centres undefined)
0
COc1ccc(NC(=O)Cc2ccc(Nc3cc(N(C)c4cccc(C)c4)ncn3)cc2)cn1
20
Cc1cccc(Nc2nccc3c2CN(C(=O)c2cc(C)n(C)c2C)CC3)c1
0
O=C(COc1ccccc1)N1CCN(c2nccc(Nc3ccc4ncsc4c3)n2)CC1
3
Cc1cccc(N(C)c2cc(N3CCN(C(=O)Cc4c[nH]c5ccccc45)CC3)ncn2)c1
0
Cc1cccc(N(C)c2cc(Nc3cccc(C(=O)N(C)CCc4ccccn4)c3)ncn2)c1
3
